# PROCEDURE_SUMMARY: Cytotoxicity against human THP1 cells after 24 hrs by resazurin assay
# Assay type: cell-based, THP-1
# COND: read-out: MIC
The following compounds are listed with their measured MCC at 24 h values.

Reported MCC at 24 h, compound CC(C)OCCOc1ccc(-c2cnc(COc3ncccc3C(N)=O)nc2)c(Cl)c1 : ____ > 250 µM

Please do the same for Cn1ccnc1-c1ccc(COc2ncccc2C(N)=O)cc1 as well. > 50 µM

Repeat for the following compound: NC(=O)c1cccnc1OCc1ccc(-c2ccc(OCC3CCCO3)cc2Cl)cn1 (stereo not drawn) > 50 µM

What do you have for COc1ccc(-c2ccc(COc3ncccc3C(N)=O)nc2)c(F)c1 ? > 50 µM

// same read-out, input: CNC(=O)c1cccnc1OCc1ccc(-c2ccc(OCCOC)cc2C)cn1 > 50 µM
